Experiment: AUC (0 to t) in CD1 mouse at 10.36 mg/kg administered via oral gavage by LC-MS/MS method
Type: ADME, organism-based
Details: in vivo
property.name: AUC(0-t) (µg·h/mL)
Numbers only, in µg·h/mL.

Using the record for Cc1[nH]c(C)c(-c2ccc(-c3ccc(OC(F)(F)F)cc3)nc2)c(=O)c1Br , report its AUC(0-t).
109

---

Assay: Tmax in CD1 mouse at 11.512 mg/kg administered via oral gavage by LC-MS/MS method
Assay type: ADME, organism-based
Settings: in vivo
property.name: Tmax (h)
Numbers only, in h.

Using the record for Cc1[nH]c(C)c(-c2ccc(-c3ccc(C(F)(F)F)cc3F)nc2)c(=O)c1Cl , report its Tmax.
10
